biological target: GalNAc(b1-4)GlcNAc(b1-3)GalNAc(b1-4)GlcNAc; test: glycan array binding signal (z-score within array); higher = stronger binding; conditions: glycan notation: IUPAC condensed, linker removed
Only a selection was taken, and the strongest signals are over-represented in it overall.
measured.parameter: glycan array binding signal (z-score)
// no unit string in output, number only

WGA (Triticum vulgare) (protein) QRCGEQGSNMECPNNLCCSQYGYCGMGGDYCGKGCQNGACWTSKRCGSQAGGATCPNNHCCSQYGHCGFGAEYCGAGCQGGPCRADIKCGSQSGGKLCPNNLCCSQWGFCGLGSEFCGGGCQSGACSTDKPCGKDAGGRVCTNNYCCSKWGSCGIGPGYCGAGCQSGGCDAVFAGAITANSTLLAE	2.8
AAA (Anguilla anguilla), Q7SIC1 (protein) VIPEGYTQENVAVRGKATQSAQLRGEHAANSEASNAIDGNRDSNFYHGSCTHSSGQANPWWRVDLLQVYTITSVTITNRGDCCGERISGAEINIGQHLASNGVNNPECSVIGSMATGETKTFHCPAPMIGRYVVTYLPTSESLHLCEVEVNVDKPAAA	3.34
Erv46-EDTA (Saccharomyces cerevisiae), P39727 (protein) MKFLVNVALVFMVVYISYIYAAAPEHHHHHHDYDIPTTENLYFQGAMDSVVTRPQLVVDRDRHAKLELNMDVTFPSMPCDLVNLDIMDDSGEMQLDILDAGFTMSRLNSEGRPVGDATELHVGGNGDGTAPVNNDPNYCGPCYGAKDQSQNENLAQEEKVCCQDCDAVRSAYLEAGWAFFDGKNIEQCEREGYVSKINEHLNEGCRIKGSAQINRIQGNLHFAPGKPYQNAYGHFHDTSLYDKTSNLNFNHIINHLSFGKPIQSHSKLLGNDKRHGGAVVATSPLDGRQVFPDRNTHFHQFSYFAKIVPTRYEYLDNVVIETAQFSATFHSRPLAGGRDKDHPNTLHVRGGIPGMFVFFEMSPLKVINKEQ	-0.443
CSA (Cytisus scoparius), P29257 (protein) SEELSFSFTKFKTDQKNLILQRDALITPTGKLQLTTVENGKPAAYSLGRALYSTPIHIWDKSTGDEASFATFFSFVISDAPNPSTAATDGLAFFLAPADTQPQSAGGYLGLFEKDSSYNSSNQIVAVEFDTYYNSAWDPQTNPHIGIDVNTIKSKKVSSWGFKNGNVATVLITYQPSSKSLVASLVYPSGQTSDKTSYIISANVDLKATVPEWVRIGFSATTGQTDNYIETHDILSWSFKSKLPATKN	12.4
ECL (Erythrina cristagalli), Q6YD91 (protein) VETISFSFSEFEPGNNDLTLQGAAIITQSGVLQLTKINQNGMPAWDSTGRTLYTKPVHIWDMTTGTVASFETRFSFSIEQPYTRPLPADGLVFFMGPTKSKPAQGYGYLGVFNNSKQDNSYQTLAVEFDTFSNPWDPPQVPHIGIDVNSIRSIKTQPFQLDNGQVANVVIKYDASSKILLAVLVYPSSGAIYTIAEIVDVKQVLPEWVDVGLSGATGAQRDAAETHDVYSWSFHASLPETND	3.31

Now, please, on to the next binder.
-- ask glycan array binding signal (z-score) for CFEM-PPm (Pichia pastoris), F2QPV1 (protein) AVATPPACLLACAAEVVKESSDCDALNNIQCICENEGSAIHACLESTCPDGLSSTALQSFEDVCE ?
-- reply -0.226
